# remaining at 0.5 h, 1000 µM listing for each entry below
- ASSAY TEXT: Stability in C57BL/6J mouse serum assessed as residual parent compound remaining at 1 mM after 30 mins at 37 degC by HPLC method
- Assay type: ADME, cell-free
- MEASUREMENT PARAMETERS: read-out: Stability
// units = %; emit number, no label

# example entries with known answers
# TEST SMILES, UNITS SYMBOL, NUMERIC VALUE
rows = [
    ("CC[C@H](C)[C@H](NC(=O)[C@H](CCCNC(=N)NC)NC(=O)[C@H](CC(=O)O)NC(=O)[C@@H](NC(=O)[C@@H]1CCCN1C(=O)CNC(=O)[C@@H](C)NC(=O)[C@H](CC1CCCCC1)NC(=O)[C@H]1CCCN1C(=O)[C@H](CO)NC(=O)[C@@H](Cc1ccccc1)NC(C)=O)[C@@H](C)CC)C(=O)NC", "%", 91),
    ("CC[C@H](C)[C@H](NC(=O)[C@H](CCCNC(=N)N)NC(=O)[C@H](CC(=O)O)NC(=O)[C@@H](NC(=O)[C@@H]1CCCN1C(=O)CNC(=O)[C@@H](C)NC(=O)[C@H](CC1CCCCC1)NC(=O)[C@H]1CCCN1C(=O)[C@H](CO)NC(=O)[C@@H](Cc1ccccc1)NC(C)=O)[C@@H](C)CC)C(=O)NC", "%", 86),
]

Now turn to the next compound.
Query :: Return remaining at 0.5 h, 1000 µM for the following compound: CC[C@H](C)[C@H](NC(=O)[C@H](CCCNC(=N)N)NC(=O)[C@H](CC(=O)O)NC(=O)[C@@H](NC(=O)[C@@H]1CCCN1C(=O)CNC(=O)[C@@H](C)NC(=O)[C@H](CC1CCCCC1)NC(=O)[C@H]1CCCN1C(=O)[C@H](CO)NC(=O)[C@@H](Cc1ccccc1)NC(C)=O)[C@@H](C)CC)C(N)=O
Result :: 81

----------
- SYSTEM UNDER TEST: Atrial natriuretic peptide receptor 3 (Homo sapiens)
- Sequence (P17342 whole entry): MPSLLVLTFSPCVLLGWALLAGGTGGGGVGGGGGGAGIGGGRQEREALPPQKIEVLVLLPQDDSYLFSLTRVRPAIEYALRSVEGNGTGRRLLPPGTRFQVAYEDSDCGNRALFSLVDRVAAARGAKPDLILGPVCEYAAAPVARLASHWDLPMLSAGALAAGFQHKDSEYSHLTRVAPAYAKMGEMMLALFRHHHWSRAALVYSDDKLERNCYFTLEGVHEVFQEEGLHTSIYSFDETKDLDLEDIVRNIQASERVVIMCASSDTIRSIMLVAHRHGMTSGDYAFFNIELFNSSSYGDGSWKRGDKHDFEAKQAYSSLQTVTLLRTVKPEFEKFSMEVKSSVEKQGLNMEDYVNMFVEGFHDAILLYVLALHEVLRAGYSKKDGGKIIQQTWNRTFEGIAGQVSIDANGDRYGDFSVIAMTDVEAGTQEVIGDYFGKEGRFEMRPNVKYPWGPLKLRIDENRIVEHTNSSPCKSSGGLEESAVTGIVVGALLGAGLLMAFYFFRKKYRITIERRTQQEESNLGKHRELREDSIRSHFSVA
- ASSAY TEXT: Displacement of [125I]-human ANP from His-tagged and Fc fragment containing human NPR-3 extracellular domain expressed in FreeStyle 293 cells incubated for 2 hrs by top count method
Square brackets hold non-standard residues; d marks the D form. Peptide text beside a SMILES is read from it. Cha = N[C@@H](CC1CCCCC1)C(=O)O
MEASUREMENT LABEL: pIC50
Notebook: values listed as pIC50 are -log10 of the concentration (mol/L).

# COMPOUND, pIC50
measured = [
    ("CC[C@H](C)[C@H](NC(=O)[C@H](CCCNC(=N)N)NC(=O)[C@H](CC(=O)O)NC(=O)[C@@H](NC(=O)[C@H](CCCNC(=N)N)NC(=O)CNC(=O)CNC(=O)[C@H](CC1CCCCC1)NC(=O)CNC(=O)[C@H](CO)NC(=O)[C@@H](N)Cc1ccccc1)[C@@H](C)CC)C(=O)NCC(N)=O", 8.92),
    ("CC[C@H](C)[C@H](NC(=O)[C@H](CCCNC(=N)N)NC(=O)[C@H](CC(=O)O)NC(=O)[C@@H](NC(=O)[C@H](CCCNC(=N)N)NC(=O)CNC(=O)CNC(=O)[C@H](CC1CCCCC1)NC(=O)CNC(=O)[C@H](CO)NC(=O)[C@H](CO)NC(=O)[C@@H](N)CCCNC(=N)N)[C@@H](C)CC)C(=O)NCC(N)=O (H-RSSG[Cha]GGRIDRIG-NH2)", 8.11),
]

Now turn to the next compound.
Query :: Return pIC50 for the following compound: CC[C@H](C)[C@H](NC(=O)[C@H](CCCNC(=N)NC)NC(=O)[C@H](CC(=O)O)NC(=O)[C@@H](NC(=O)[C@@H]1CCCN1C(=O)CNC(=O)[C@@H](C)NC(=O)[C@H](CC1CCCCC1)NC(=O)[C@H]1CCCN1C(=O)[C@H](CO)NC(=O)[C@@H](Cc1ccccc1)NC(C)=O)[C@@H](C)CC)C(=O)NC
Result :: 9.85

----------
- ASSAY TEXT: Stability in C57BL/6J mouse serum assessed as residual parent compound remaining at 1 mM after 60 mins at 37 degC by HPLC method
- Format: ADME, cell-free
- MEASUREMENT PARAMETERS: read-out: Stability
# remaining at 1 h, 1000 µM listing for each entry below
// units = %; emit number, no label

# TEST SMILES, UNITS SYMBOL, NUMERIC VALUE
rows = [
    ("CC[C@H](C)[C@H](NC(=O)[C@H](CCCNC(=N)N)NC(=O)[C@H](CC(=O)O)NC(=O)[C@@H](NC(=O)[C@@H]1CCCN1C(=O)CNC(=O)[C@@H](C)NC(=O)[C@H](CC1CCCCC1)NC(=O)[C@H]1CCCN1C(=O)[C@H](CO)NC(=O)[C@@H](Cc1ccccc1)NC(C)=O)[C@@H](C)CC)C(=O)NC", "%", 74),
    ("CC[C@H](C)[C@H](NC(=O)[C@H](CCCNC(=N)N)NC(=O)[C@H](CC(=O)O)NC(=O)[C@@H](NC(=O)[C@@H]1CCCN1C(=O)CNC(=O)[C@@H](C)NC(=O)[C@H](CC1CCCCC1)NC(=O)[C@H]1CCCN1C(=O)[C@H](CO)NC(=O)[C@@H](Cc1ccccc1)NC(C)=O)[C@@H](C)CC)C(N)=O", "%", 68),
]

Now turn to the next molecule.
Query :: Return remaining at 1 h, 1000 µM for the following molecule: CC[C@H](C)[C@H](NC(=O)[C@H](CCCNC(=N)NC)NC(=O)[C@H](CC(=O)O)NC(=O)[C@@H](NC(=O)[C@@H]1CCCN1C(=O)CNC(=O)[C@@H](C)NC(=O)[C@H](CC1CCCCC1)NC(=O)[C@H]1CCCN1C(=O)[C@H](CO)NC(=O)[C@@H](Cc1ccccc1)NC(C)=O)[C@@H](C)CC)C(=O)NC
Result :: 84

----------
- SYSTEM UNDER TEST: Atrial natriuretic peptide receptor 3 (Homo sapiens)
- ASSAY TEXT: Displacement of [125I]-human ANP from His-tagged and Fc fragment containing human NPR-3 extracellular domain expressed in FreeStyle 293 cells incubated for 2 hrs by top count method
Square brackets hold non-standard residues; d marks the D form. Peptide text beside a SMILES is read from it. Cha = N[C@@H](CC1CCCCC1)C(=O)O
Kindly apply the following: Met if IC50 is less than 0.1 nM, Not met in every other case.

# MOLECULE, SYSTEM UNDER TEST, CLASS LABEL
data = [
    ("CC[C@H](C)[C@H](NC(=O)[C@H](CCCNC(=N)N)NC(=O)[C@H](CC(=O)O)NC(=O)[C@@H](NC(=O)[C@H](CCCNC(=N)N)NC(=O)CNC(=O)CNC(=O)[C@H](CC1CCCCC1)NC(=O)CNC(=O)[C@H](CO)NC(=O)[C@H](Cc1ccccc1)NC(=O)[C@H](CO)NC(=O)[C@@H](N)CCCNC(=N)N)[C@@H](C)CC)C(=O)NCC(N)=O (H-RSFSG[Cha]GGRIDRIG-NH2)", "Atrial natriuretic peptide receptor 3 (Homo sapiens)", "Not met"),
]

Query :: Please state whether IC50 is below 0.1 nM for CC[C@H](C)[C@H](NC(=O)[C@H](CCCNC(=N)N)NC(=O)[C@H](CC(=O)O)NC(=O)[C@@H](NC(=O)[C@H](CCCNC(=N)N)NC(=O)CNC(=O)CNC(=O)[C@H](CC1CCCCC1)NC(=O)CNC(=O)[C@H](CO)NC(=O)[C@H](N)Cc1ccccc1)[C@@H](C)CC)C(=O)NCC(N)=O
Result :: Not met

Query :: Please state whether IC50 is below 0.1 nM for CC[C@H](C)[C@H](NC(=O)[C@H](CCCNC(=N)N)NC(=O)[C@H](CC(=O)O)NC(=O)[C@@H](NC(=O)[C@H](CCCNC(=N)N)NC(=O)CNC(=O)CNC(=O)[C@H](CC1CCCCC1)NC(=O)CNC(=O)[C@@H](N)CO)[C@@H](C)CC)C(=O)NCC(N)=O (H-SG[Cha]GGRIDRIG-NH2)
Result :: Not met

Query :: Please state whether IC50 is below 0.1 nM for CC[C@H](C)[C@H](NC(=O)[C@H](CCCNC(=N)N)NC(=O)[C@H](CC(=O)O)NC(=O)[C@@H](NC(=O)[C@@H]1CCCN1C(=O)CNC(=O)[C@@H](C)NC(=O)[C@H](CC1CCCCC1)NC(=O)[C@H]1CCCN1C(=O)[C@H](CO)NC(=O)[C@@H](Cc1ccccc1)NC(C)=O)[C@@H](C)CC)C(N)=O
Result :: Met
